Test description: label from the status in PepcDB records
Observed property: protein production

Consider the following illustrative entries.
[
  {
    "Record sequence": "MEEKKSSGMFAVFAALGANVLVAISKFIGFGLSGSAAMLNESIHSVVDCGNQILLLFGDRRSRQASTNLHQFGEARAKYFFSMIVATFLFFGGGVIGVMEAYDKLVHPAHSVENAGIVIGILLIGMAIEGSSLRVAFKEISELNTEKLPIFKFLHESRHSEILVIFAEDLCAIIGLLLALLGTVLTMVTGNPIFDAISGLLIGFLLMAAAIFLTREFYSLIVGERVTDSDLEKILTAFDRPEVERVINVKTVHLGPTEILIAAKIDLVSKLVLEDYEIINQIEAEIRKKISDKKCYIYIEIDEFVQGYVQSSDL",
    "Observed property": "protein production",
    "Test value": "failed"
  },
  {
    "Record sequence": "MPLPPDITFDSLALIKMHSQNMKRILEVTLAKFTVNLSIVTVYRYLTARAYLKKNIEAEFEILKDIYNIVPLLDDIAIKAAQIEANLIKKEITLDMEDIITATTAIYTNSLLVTDDPKRYEPIRRFGLDTMPLDKFIKEVELMVEKELI",
    "Observed property": "protein production",
    "Test value": "not failed"
  },
  {
    "Record sequence": "MLMHATMAALAVFICFAGNYLTGQSMMERPLVVGLVTGILMGDMKTGVLMGASLEAIFLGNVNIGGVIAAEPVTATTLATTFAIISNVEQKAAMTLAVPIGMLAAFVVMFLKNVFMNIFAPSLDKAAREGNQKMVVTLHYGTWIIYYLIIASISFIGILAGSGPVNLFVESIPQNLMNGLSAAGGLLPAVGFAMLMKLLWDNKLAVFYILGFVLTAYLQLPAVAVAVIGTVICVVSAQRDVEFRDILKRKPAASSAVEGSAKEIEEEDFFA",
    "Observed property": "protein production",
    "Test value": "failed"
  },
  {
    "Record sequence": "MKRKSLKSFIYVSALLVFLSGFVGVSLFVKSEVVEATTIGDDYPVKWKNLPLGGAIDDWRMYTRYCTSFVAYRLSTANNFELPSGFGNADRWGTEAMARGYKVDKNPKVGSVAWWTSTHVAWVAEVSGDNVKVEEYNYGFDGKYNTRWINKNSANGYIHFKDMPQTPVGWYNNGHYDYYYYADGTKAIGLTWVGTKRYNFDKNGAMYKNAWTNSDKYSYYSTSDGSLAVGLTWVGTKRYNFDKNGAMYKNAWTNSDKYSYYSTSDGSLAVGLTWVGTKRYNFDKNGAMYKNAWTNSDKYSYYSTSDGSLAVGHQQIGENKYIFDKNGALYKNMWVDLDGNRYYSKEDGALAIGEQIIDGITYMFDESGKLVNNLEHHHHHH",
    "Observed property": "protein production",
    "Test value": "not failed"
  }
]

Input line: Endpoint output: protein production of MDLMAYWLCITNEDNWKVIKEKKIWGVAERYKNTINKVKVGDKLIIYEIQRSGKDYKPPYIRGVYEVVSEVYKDSSKIFKPTPRNPNEKFPYRVKLKEIKVFEPPINFKELIPKLKFITNKKRWSGHLMGKAMREIPEEDYKLIVGN . Value?
Output line: not failed

Input line: Here is the next sequence: MNITVNDRECSAQVGDRLLDIARANHSHIGYFCGGNAICQTCYVRVLEGAELLSPMSDAEKAMLSDKLIKEGTRMACQTLIEKPGKITVLSEVEAAKRLTLENPLEHHHHHH
Output line: not failed

Input line: Try MGHHHHHHSHRNLDSRTFITIGDRNFEVEADDLVTISELGRGAYGVVEKVRHAQSGTIMAVKRIRATVNSQEQKRLLMDLDINMRTVDCFYTVTFYGALFREGDVWICMELMDTSLDKFYRKVLDKNMTIPEDILGEIAVSIVRALEHLHSKLSVIHRDVKPSNVLINKEGHVKMCDFGISGYLVDSVAKTMDAGCKPYMAPERINPELNQKGYNVKSDVWSLGITMIEMAILRFPYESWGTPFQQLKQVVEEPSPQLPADRFSPEFVDFTAQCLRKNPAERMSYLELMEHPFFTLHKTKKTDIAAFVKEILGEDS next.
Output line: failed

Input line: Same thing, different sequence: ARNAVMVIDGIPVTKSSNTINDALEGVTFNLLKANPGTTTTLTVEKDKSNVEAAVNAFVKAYNDLEKTIGNLSRYDAANKQASVLTGDSTMRMIQNRMRAMLGGNQSAAGGINSLSELGISFQKDGTLALDNNKLSAVLNNPDKNIAAFFTTQGGDDTTSVEGFASRLSELIDGMTRSDGLISSRMDGINSTIKGIGKQREALEFRLESVEKRLRAQFTALDTMIASMNQ
Output line: not failed

Input line: Same thing, different sequence: MHDALRAYIEKYASEKISDADFEEVKKAFTFKRYKKGQFLLQEGEVSKYTAFVLKGSMRQYSVDAKGTEHIIHFGIENWWVGDRESSTMLTPSNYNIDAIEDTEVLLTTSEDLQQLTAALPVIGKMVNTMNQRNFIASQKRIHDALSLTAEERYLELLKNHPDFLQRFPQTMLASYLGITAETYSRIRKKALK
Output line: not failed

Input line: Lookup MITFRKRVEIEADPAEVFRVISDPWRITEFWKGTRQVIEDGDFYRIRFAFPAWGLMSFHPDAERMTVLTSYLKGPVRGSKVDAVLVSSGKTVLQTEWNVRLSFYLRPFERRIASHFESGADHAINRIKESVEKDKK
Output line: failed
